Cited source for all entries: ChEMBL document CHEMBL3808383

// MIC lookup, one value per entry
# System: Mycobacterium tuberculosis
# assay_notes: Antimycobacterial activity against Mycobacterium tuberculosis H37Rv ATCC 27294 after 28 days by agar dilution method
# Assay type: functional
# experimental_context: H37Rv ATCC 27294, 672 h, read-out: MIC100
Just the number in µM, nothing appended.

>  <line_notation>
O=C(NCc1ccc(N2CCN(c3ccc(Cl)cc3)CC2)cc1)c1c(-c2ccc3sc4ccccc4c3c2)nc2ccccn12

>  <MIC / µM>
2.5

$$$$
>  <line_notation>
O=C(NCc1ccc(N2CCC(Cc3ccccc3)CC2)cc1)c1c(-c2ccc3sc4ccccc4c3c2)nc2ccccn12

>  <MIC / µM>
1.3

$$$$
>  <line_notation>
CC(C)(C)c1ccc(CNC(=O)c2c(-c3ccc4sc5ccccc5c4c3)nc3ccccn23)cc1

>  <MIC / µM>
3.22

$$$$

Okay, now this compound:
Query: Requested field: MIC. Item: O=C(NCc1ccccc1)c1c(-c2ccc3sc4ccccc4c3c2)nc2ccccn12
Result: 7.21

----------
The following molecules are listed with their measured MIC values.
# System: Mycobacterium tuberculosis
# assay_notes: Antimycobacterial activity against Mycobacterium tuberculosis H37Rv ATCC 27294 after 28 days by agar dilution method
# Type: functional
# experimental_context: H37Rv ATCC 27294, 672 h, read-out: MIC
Provide the reading as a plain figure in µg/mL.

Consider the reported MIC for these molecules:
>  <line_notation>
CC[C@@H](CO)NCCN[C@@H](CC)CO

>  <MIC, µg/mL>
3.13

$$$$
>  <line_notation>
CC(C)(C)c1ccc(Oc2ccc(CNC(=O)c3c(-c4ccc5sc6ccccc6c5c4)nc4ccccn34)cc2)cc1

>  <MIC, µg/mL>
25

$$$$

Query: Dear colleague, I am looking for the recorded MIC of the following molecule: O=C(NCc1ccc(Cl)cc1)c1c(-c2ccc3sc4ccccc4c3c2)nc2ccccn12
Result: 25

Query: I would be grateful if you could share the reported MIC for COc1ccc(CNC(=O)c2c(-c3ccc4sc5ccccc5c4c3)nc3ccccn23)cc1 .
Result: 6.25

----------
# System: Mycobacterium tuberculosis
# assay_notes: Antimycobacterial activity against Mycobacterium tuberculosis H37Rv ATCC 27294 after 28 days by agar dilution method
# Type: functional
# experimental_context: H37Rv ATCC 27294, 672 h, read-out: MIC
Label T when MIC is strictly below 10 µg/mL; at or above that, label F.

Known results for compounds:
>  <compound>
O=C(NCc1ccc(Oc2ccc(OC(F)(F)F)cc2)cc1)c1c(-c2ccc3sc4ccccc4c3c2)nc2ccccn12

>  <discrete_label>
F

$$$$
>  <compound>
O=C(NCc1ccc(F)cc1)c1c(-c2ccc3sc4ccccc4c3c2)nc2ccccn12

>  <discrete_label>
T

$$$$
>  <compound>
O=C(NCc1ccccc1)c1c(-c2ccc3sc4ccccc4c3c2)nc2ccccn12

>  <discrete_label>
T

$$$$
>  <compound>
O=C(NCc1ccc(N2CCN(c3ccccc3F)CC2)cc1)c1c(-c2ccc3sc4ccccc4c3c2)nc2ccccn12

>  <discrete_label>
F

$$$$
>  <compound>
CC(C)(C)c1ccc(CNC(=O)c2c(-c3ccc4sc5ccccc5c4c3)nc3ccccn23)cc1

>  <discrete_label>
T

$$$$
>  <compound>
O=C(NCc1ccc(C(F)(F)F)cc1)c1c(-c2ccc3sc4ccccc4c3c2)nc2ccccn12

>  <discrete_label>
F

$$$$
>  <compound>
NC(=O)c1cnccn1 [PYRAZINAMIDE]

>  <discrete_label>
F

$$$$
>  <compound>
O=C(NCc1ccc(N2CCSCC2)cc1)c1c(-c2ccc3sc4ccccc4c3c2)nc2ccccn12

>  <discrete_label>
F

$$$$

Query: Does O=C(NCc1ccc(N2CCOCC2)cc1)c1c(-c2ccc3sc4ccccc4c3c2)nc2ccccn12 have MIC strictly under 10 µg/mL?
Result: F

Query: # check: MIC < 10 µg/mL for O=C(NCc1ccc(N2CCN(c3ccc(Cl)cc3)CC2)cc1)c1c(-c2ccc3sc4ccccc4c3c2)nc2ccccn12
Result: T

Query: Just wondering, is MIC of O=C(NCc1ccc(N2CCC(Cc3ccccc3)CC2)cc1)c1c(-c2ccc3sc4ccccc4c3c2)nc2ccccn12 below 10 µg/mL?
Result: T

Query: Report whether reported MIC is lower than 10 µg/mL (strictly) for NNC(=O)c1ccncc1
Result: T

Query: Is MIC strictly under 10 µg/mL for the entry O=C(NCc1ccc(Oc2ccccc2)cc1)c1c(-c2ccc3sc4ccccc4c3c2)nc2ccccn12 ?
Result: T

Query: Hello, is MIC of the following compound strictly smaller than 10 µg/mL? O=C(NCc1ccc(Oc2ccc(F)cc2)cc1)c1c(-c2ccc3sc4ccccc4c3c2)nc2ccccn12
Result: F

Query: Problem: For the compound O=C(NCc1ccc(OC(F)(F)F)cc1)c1c(-c2ccc3sc4ccccc4c3c2)nc2ccccn12 , is MIC under 10 µg/mL?
Result: F

Query: Criterion: MIC strictly below 10 µg/mL. Is it met by O=C(NCc1ccc(Oc2ccc(Cl)cc2)cc1)c1c(-c2ccc3sc4ccccc4c3c2)nc2ccccn12 ?
Result: F

Query: For Cc1ccc(CNC(=O)c2c(-c3ccc4sc5ccccc5c4c3)nc3ccccn23)cc1 , is the recorded MIC below the cut-off of 10 µg/mL?
Result: F

Query: Strictly below 10 µg/mL in MIC? O=C(NCc1ccc(N2CCN(Cc3ccccc3)CC2)cc1)c1c(-c2ccc3sc4ccccc4c3c2)nc2ccccn12
Result: F

----------
# assay_notes: Cytotoxicity against HEK293T cells assessed as cell growth inhibition at 50 ug/mL after 72 hrs by MTT assay
# Assay type: cell-based, HEK-293T
# experimental_context: human, read-out: GI
Measured inhibition at 72 h, 50 ug/mL accompanies every entry in the list below.
Reply numerically in %, unit not repeated.

>  <line_notation>
CC(C)(C)c1ccc(CNC(=O)c2c(-c3ccc4sc5ccccc5c4c3)nc3ccccn23)cc1

>  <result_type>
inhibition at 72 h, 50 ug/mL

>  <numeric_readout>
18.8

$$$$
>  <line_notation>
O=C(NCc1ccc(N2CCN(c3ccc(Cl)cc3)CC2)cc1)c1c(-c2ccc3sc4ccccc4c3c2)nc2ccccn12

>  <result_type>
inhibition at 72 h, 50 ug/mL

>  <numeric_readout>
24.4

$$$$
>  <line_notation>
O=C(NCc1ccc(F)cc1)c1c(-c2ccc3sc4ccccc4c3c2)nc2ccccn12

>  <result_type>
inhibition at 72 h, 50 ug/mL

>  <numeric_readout>
25.8

$$$$

Query: So what's the measured inhibition at 72 h, 50 ug/mL for this one? COc1ccc(CNC(=O)c2c(-c3ccc4sc5ccccc5c4c3)nc3ccccn23)cc1
Result: 37

Query: Form field: reported inhibition at 72 h, 50 ug/mL of O=C(NCc1ccc(N2CCC(Cc3ccccc3)CC2)cc1)c1c(-c2ccc3sc4ccccc4c3c2)nc2ccccn12
Result: 34.8

Query: Field request: inhibition at 72 h, 50 ug/mL | item: O=C(NCc1ccccc1)c1c(-c2ccc3sc4ccccc4c3c2)nc2ccccn12
Result: 34.6

Query: What does the data say about its inhibition at 72 h, 50 ug/mL? Entry: O=C(NCc1ccc(Oc2ccccc2)cc1)c1c(-c2ccc3sc4ccccc4c3c2)nc2ccccn12
Result: 38.4
